# Test system: 2Sp-muMax20 (muMax20 with two 2,6-bis(methyl)pyridine Cys staples)
# PROCEDURE_TEXT: PBM 8-mer E-score (E-score (rank enrichment, -0.5 to 0.5)); higher = stronger preferential binding
Over roughly 33,000 sequences, “E-score (rank enrichment, -0.5 to 0.5)” has its median near -0.0043; the highest 2% begin near 0.24. Many of the other results were omitted from the sample, so the highest values are more common in it than they were.
MEASUREMENT_NAME: PBM 8-mer E-score
Hey, just send me the number, nothing else.

// below: answered sequences
INSERT INTO results (entry_sequence, assayed_target, reading) VALUES
  ('CATTTCAC', '2Sp-muMax20 (muMax20 with two 2,6-bis(methyl)pyridine Cys staples)', 0.0886),
  ('CCTGGAGA', '2Sp-muMax20 (muMax20 with two 2,6-bis(methyl)pyridine Cys staples)', -0.136),
  ('ATACCATA', '2Sp-muMax20 (muMax20 with two 2,6-bis(methyl)pyridine Cys staples)', 0.249),
  ('GTACCATA', '2Sp-muMax20 (muMax20 with two 2,6-bis(methyl)pyridine Cys staples)', -0.00352),
  ('CTTCTTAA', '2Sp-muMax20 (muMax20 with two 2,6-bis(methyl)pyridine Cys staples)', 0.126),
  ('CCCGTACG', '2Sp-muMax20 (muMax20 with two 2,6-bis(methyl)pyridine Cys staples)', -0.0914);

Missing value: PBM 8-mer E-score, 2Sp-muMax20 (muMax20 with two 2,6-bis(methyl)pyridine Cys staples), entry ACGAGCCT . Fill in? -0.00942

---

Quick reference for PBM 8-mer E-score among some sequences
# Test system: 2Sp-muMax20 (muMax20 with two 2,6-bis(methyl)pyridine Cys staples)
# PROCEDURE_TEXT: PBM 8-mer E-score (E-score (rank enrichment, -0.5 to 0.5)); higher = stronger preferential binding
Whole data set: some 33,000 sequences, median “E-score (rank enrichment, -0.5 to 0.5)” near -0.0043, cut for the highest 2% near 0.24. Shown is part of a subset that was picked to be rich in the highest values.
Format: numeric value only, no unit, no commentary.

Below, 10 sequences whose answers are already recorded.
INSERT INTO measurements (entry_sequence, reading) VALUES
  ('CCTCCCAA', 0.0742),
  ('ATGCTTTG', 0.239),
  ('CAGCATGA', 0.131),
  ('ACTCCCCA', 0.282),
  ('CAGCATGC', 0.245),
  ('CTCCCAAA', 0.143),
  ('ACCTCCAC', -0.105),
  ('TATCCCCA', 0.239),
  ('AGGATTTG', -0.0789),
  ('AGGTGGCA', -0.0941);

Returns the measured PBM 8-mer E-score for the input sequence. Input: TCGTCCAA -0.0225

Param item = ACAAGTCT ; retrieve measured PBM 8-mer E-score. 0.287

Requested field: PBM 8-mer E-score. Item: CCCGTAGA -0.219

---

# System: 2Sp-muMax20 (muMax20 with two 2,6-bis(methyl)pyridine Cys staples)
# PROCEDURE_TEXT: PBM 8-mer E-score (E-score (rank enrichment, -0.5 to 0.5)); higher = stronger preferential binding
Whole data set: some 33,000 sequences, median “E-score (rank enrichment, -0.5 to 0.5)” near -0.0043, cut for the highest 2% near 0.24. Shown is part of a subset that was picked to be rich in the highest values.
Attribute: PBM 8-mer E-score
Just the number, please, no unit attached.

Would you please look over these solved cases?
INSERT INTO measurements (entry_sequence, reading) VALUES
  ('CCACGCGA', 0.112),
  ('CTGAAGGC', -0.247),
  ('ATTGTCTG', 0.0837),
  ('ACTGAACG', -0.181),
  ('AGTCATAA', 0.037),
  ('GAAATCAC', 0.142),
  ('CAAATCAA', 0.237),
  ('AAAATCAG', 0.0292),
  ('CCACGTGA', 0.358),
  ('GAAATCAA', 0.0712);

Now for another entry.
Requested field: PBM 8-mer E-score. Item: GTATTGGA 0.0561

Origin of the recorded values: the supplement of paper PMC12636033
